Where do the numbers come from? From patent US20250250357A1.

target: T1, human MSLN-R3 on HEK293T-hMSLN-R3 recombinant cells (human, UniProt Q13421 487-606); assay: FACS, HEK293T-hMSLN-R3 cells
T1 construct: the C-terminal limit is uncertain; also called human MSLN-R3 membrane protein
T1 sequence (Q13421 495-614): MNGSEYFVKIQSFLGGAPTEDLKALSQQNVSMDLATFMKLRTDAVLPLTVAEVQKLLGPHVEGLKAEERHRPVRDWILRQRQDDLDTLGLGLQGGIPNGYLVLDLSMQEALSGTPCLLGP
experimental.readout: EC50 (nM)
// return numeric value only (unit: nM, not printed)

binder: F3.80.22-H6 (scFv, not shown: small tags and cut ends, also called S009-F3.80.22 humanized antibody VL1a + VH2) scFv: DIVMTQTPLSLPVTPGEPASISCRSSQSLEHNDGNTYLHWFLQKPGQSPQLLIYKVSNRFSGVPDRFSGSGSGTDFTLKISRVEAEDVGVYYCSQSTHVPFTFGQGTKLEIKGGGGSGGGGSGGGGSEVQLVQSGAEVKKPGATVKISCKASGYTFTDYEIHWVQQAPGKGLEWMGAFDPEIGGSAYNQKFKDRVTITADKSTSTAYMELSSLRSEDTAVYYCTDYYGSSSGYFDVWGQGTTVTVSS
units: nM
EC50: 8.39

Now let's try a different one.
Prompt: What does the record list as EC50 for F3.80.22-H17 (scFv, not shown: small tags and cut ends, also called S009-F3.80.22 humanized antibody VH1 + VL1a) scFv: EVQLVQSGAEVKKPGATVKISCKVSGYTFTDYEIHWVQQAPGKGLEWMGAFDPEIGGSAYNQKFKDRVTITADKSTDTAYMELSSLRSEDTAVYYCTDYYGSSSGYFDVWGQGTTVTVSSGGGGSGGGGSGGGGSDIVMTQTPLSLPVTPGEPASISCRSSQSLEHNDGNTYLHWFLQKPGQSPQLLIYKVSNRFSGVPDRFSGSGSGTDFTLKISRVEAEDVGVYYCSQSTHVPFTFGQGTKLEIK ?
Response: 4.41
